# target_under_test: Cytochrome P450 1A2 (Homo sapiens)
# procedure_summary: Cytochrome panel assay with activity outcomes
# condition_description: recombinant CYP, pro-luciferin dealkylation, luminescence, p450-cyp1a2; series mostly up to 57.1 µM
Among all 16,000 compounds or so, about 5,700 (36%) were called active. Not shown: some 24% with an inconclusive outcome. The call rests on the fitted dose curve; in most records, active means well fitted curve in the direction sought with a large enough effect; inconclusive means small, poorly fitted or top-dose-only effect, or effect the other way; inactive means no such curve, though single readings can be large or run the other way. The list shows a part of the results. Square brackets hold non-standard residues; d marks the D form. Peptide text beside a SMILES is read from it.
Assign a class; possible classes are 1 = active, 0 = inactive

Some solved entries appear below for comparison.
1. CCCc1cc2c(n1Cc1cc(F)cc(F)c1)C(C)C1CN(C(=O)c3ccccc3)C(C)(C(=O)OC)C21 (centres undefined) | 0
2. CC(=O)N1CCN(c2ccc(NC(=O)c3ccc(C)cc3)cc2)CC1 | 0
3. Cn1c(=O)c2c(ncn2CC(COCc2ccccc2Cl)OCc2ccccc2Cl)n(C)c1=O (centres undefined) | 0
4. O=C(Nc1ccc(N2CCCCC2)cc1)c1cncc(Br)c1 | 1
5. Cc1noc(C)c1-c1cc(N(C)Cc2ccco2)ncn1 | 1

[ask] Look up the recorded call for Cc1cc(NC(=O)CSc2nc3ccccc3c(=O)n2CCCC(=O)NCc2ccco2)n[nH]1 in this test.
[reply] 0

[ask] Given CC(=O)N1CCC2(CC1)CCN(c1ccncc1)CC2 , state the outcome it received in this test.
[reply] 0

[ask] Hello, I am checking results. What call was entered for c1ccc(C(c2ccccc2)N2CCC3(CCNCC3)CC2)cc1 ?
[reply] 0

[ask] // outcome(item) with item = Cc1ccc2[nH]c3c(c2c1)CN(C(=O)CN1c2ccc(F)cc2CCC1C)CC3 (centres undefined)
[reply] 1

[ask] How was Cc1ccc(CNCC(O)(c2ccc(F)cc2)c2ccc(F)cc2)cc1 classified in this test?
[reply] 0

[ask] Kindly provide the recorded test outcome for the following molecule: NC(=O)Nn1c(CCC(=O)O)ccc1-c1ccc(F)cc1
[reply] 0

[ask] Per the records of this test, what outcome belongs to C=CCn1c(SC(C)C(=O)NCc2ccc3c(c2)OCO3)nc2scc(-c3ccccc3)c2c1=O (centres undefined) ?
[reply] 1

[ask] Can you look up the reported call for Cc1cccc2c1Oc1ccccc1[C@@H]2NC(=O)c1ccc([N+](=O)[O-])cc1 for me?
[reply] 1

[ask] Which outcome was assigned to Cn1c(=O)c2c(nc(N3CCN(c4ccccn4)CC3)n2Cc2ccccc2Cl)n(C)c1=O in this test?
[reply] 0

[ask] Recorded call for Cc1ccc(NC(=O)c2cc(NC(=O)CCC(=O)O)ccc2N2CCCCC2)cc1 ?
[reply] 0

[ask] Outcome? CCOc1ccc(/C(O)=C2/C(=O)C(=O)N(CCOCCO)C2c2cccnc2)cc1 (centres undefined)
[reply] 0

[ask] Would you mind telling me which call this test gave CC(=O)N1CCC2(CC1)CN(c1ccccc1)C2 ?
[reply] 0

[ask] // param item: COCCCNC(=O)CCC(=O)Nc1ccc2nc(N3CCOCC3)cc(C)c2c1 ; yields the recorded call
[reply] 0

[ask] Which outcome was assigned to O=C(Nc1cc(Sc2ccccn2)cc([N+](=O)[O-])c1)c1ccc([N+](=O)[O-])cc1 in this test?
[reply] 1

[ask] Test call for this molecule, please: CSCC[C@H](C=O)NC(=O)[C@H](CC(C)C)NC(=O)[C@H](CC(C)C)NC(C)=O (Ac-Leu-Leu-[dM]-aldehyde)
[reply] 0

[ask] // outcome(item) with item = C=CCn1c(SCc2ccc3c(c2)OCO3)nc2scc(-c3ccco3)c2c1=O
[reply] 1

[ask] Which result was noted for this molecule in the test: Cc1nc2cnc(Nc3ccccc3)nc2n(C)c1=O
[reply] 1

[ask] Record lookup: outcome of this test for CCCC(=O)NCCc1c2n(c3ccc(OC)cc13)Cc1ccccc1-2 ?
[reply] 1

[ask] Identify the outcome logged in this assay for the molecule shown: Cn1c(=O)c(-c2ccccc2)nc2cnc(Nc3ccccc3)nc21
[reply] 1

[ask] Short answer needed: outcome of this test for CC(=O)N1CCC2(CCCN(c3ccccc3)C2)CC1 ?
[reply] 0

[ask] Tell me the assay call for Cc1noc(C)c1-c1cc(N(C)C)ncn1 please.
[reply] 1

[ask] Fill in: this test's call for CC(=O)Nc1ccc(N2CCCCC2)cc1 is ___
[reply] 1
